System: Galium (catchweed bedstraw, Galium aparine)
Experiment: Test A postemergence
Type: in vivo
Conditions: Galium, post-emergence, 240 h, 500 g ai/ha, postemergence; 0 to 100 scale, 0 is no effect, 100 is complete control; read-out: Galium plant response rating
ATTRIBUTE_MEASURED: pest or weed control at 500 g/ha (%)
Give bare numbers, in %.

Reference set (3 entries):
* CC(C)Oc1ccc([C@H]2CNC(=O)[C@@H]2C(=O)Nc2cccc(F)c2F)cc1 | 20
* CN1CC(c2cccc(/C=C/Cl)c2)C(C(=O)Nc2ccccc2F)C1=O (centres unmarked) | 0
* CCc1cc([C@H]2CN(C)C(=O)[C@@H]2C(=O)Nc2ccccc2F)cs1 | 50

Give me pest or weed control at 500 g/ha for each of these molecules, listed below.
1. CC(C)Oc1ccc([C@H]2CNC(=O)[C@@H]2C(=O)Nc2ccccc2F)cc1
2. CCc1cccc([C@H]2CCNC(=O)[C@@H]2C(=O)Nc2cccc(F)c2F)c1
3. COc1cc([C@H]2CN(C)C(=O)[C@@H]2C(=O)Nc2ccccc2F)cc(OC)c1OC
4. O=C1NC[C@H](c2cc(C(F)F)cs2)[C@H]1C(=O)Nc1ccccc1F
5. CSc1ccccc1NC(=O)[C@H]1C(=O)N(C)C[C@@H]1c1cccc(C)c1

1. 0
2. 60
3. 0
4. 40
5. 60

====

System: crabgrass, large (large crabgrass, Digitaria sanguinalis)
Assay: Test C preemergence
Format: in vivo
Conditions: 62 g ai/ha, scale 0 to 100, 0 no effect, 100 complete control
Provide the recorded Plant response rating, Crabgrass, Large for the entries that follow.
Give bare numbers.

- CN1CC(c2ccc(C(F)(F)F)cc2)C(C(=O)Nc2ccccc2S(C)(=O)=O)C1=O (stereo not drawn) [Compound 624]: 100
- O=C1NCC(c2cccc(OC(F)(F)C(F)F)c2)C1C(=O)Nc1ccccc1F (racemic) [Compound 695]: 90
- CN1CC(c2ccc(C(F)(F)F)cc2)C(C(=S)Nc2ccccc2F)C1=O (stereo not drawn) [Compound 450]: 90

Give me Plant response rating, Crabgrass, Large for each of these compounds, listed below.
1. CN1CC(c2cccc(C(F)(F)F)c2)C(C)(C(=O)Nc2ccccc2F)C1=O (stereo not drawn) [Compound 428]
2. CN1CC(c2ccc(C(C)(F)F)cc2)C(C(=O)Nc2ccccc2F)C1=O (stereo not drawn) [Compound 691]
3. CN1CC(c2cccc(OC(F)(F)C(F)F)c2)C(C(=O)Nc2ccc(F)cc2F)C1=O (stereo not drawn) [Compound 393]

1: 95; 2: 100; 3: 95

====

Tested on: pigweed (Amaranthus retroflexus)
Test: Test A preemergence
Type: in vivo
Settings: Amaranthus retroflexus, pre-emergence, 240 h, 125 g ai/ha, preemergence; 0 to 100 scale where 0 is no effect and 100 is complete control; read-out: Pigweed plant response rating
Excerpt: […]
ATTRIBUTE_MEASURED: pest or weed control at 125 g/ha (%)
Give bare numbers, in %.

Reference set (2 entries):
- COc1cc(C(F)(F)F)ccc1[C@H]1CN(C)C(=O)[C@@H]1C(=O)Nc1cccc(F)c1F: 60
- CCOc1ccc([C@H]2CNC(=O)[C@@H]2C(=O)Nc2ccc(F)cc2F)cc1: 0

Give me pest or weed control at 125 g/ha for each of these compounds, listed below.
1. Cc1cc(F)ccc1NC(=O)[C@H]1C(=O)N(C)C[C@@H]1c1ccc(C(F)(F)F)cc1
2. COc1cc([C@H]2CN(C)C(=O)[C@@H]2C(=O)Nc2cccc(F)c2F)cc(C(F)(F)F)c1
3. CN1C[C@H](c2cc(F)cc(F)c2)[C@@H](C(=O)Nc2ccccc2[S@+](C)[O-])C1=O
4. Cc1cc(F)cc([C@H]2CNC(=O)[C@@H]2C(=O)Nc2ccc(F)c(F)c2F)c1
5. Cc1cc(C)cc([C@H]2CNC(=O)[C@@H]2C(=O)Nc2cccc(F)c2F)c1

20
20
0
40
0

Values compiled from patent US12077503B2.
